Target: T1, Mouse MuSK (recombinant, streptavidine and Flag tag) (mouse, UniProt Q61006 22-494)
T1 construct: not shown: streptavidine and Flag tag
T1 sequence: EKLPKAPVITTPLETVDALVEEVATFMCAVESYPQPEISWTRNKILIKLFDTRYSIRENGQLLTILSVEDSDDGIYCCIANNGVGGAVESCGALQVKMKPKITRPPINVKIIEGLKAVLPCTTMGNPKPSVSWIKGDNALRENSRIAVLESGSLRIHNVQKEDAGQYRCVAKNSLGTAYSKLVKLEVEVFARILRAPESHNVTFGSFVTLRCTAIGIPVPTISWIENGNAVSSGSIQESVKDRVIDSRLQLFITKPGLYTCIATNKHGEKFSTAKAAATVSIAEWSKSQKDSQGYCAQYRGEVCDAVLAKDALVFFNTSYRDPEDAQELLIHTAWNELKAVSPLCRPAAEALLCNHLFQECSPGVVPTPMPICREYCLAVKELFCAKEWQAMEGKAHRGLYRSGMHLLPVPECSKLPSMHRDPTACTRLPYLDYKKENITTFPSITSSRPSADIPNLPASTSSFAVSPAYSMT
Assay: SPR (Biacore), antibody captured on anti-hFc chip, MuSK injected 0.3125-10 nM
READOUT_LABEL: Kd (nM)
# unit: nM | format: bare number

Prompt line: Item 3D9b (antibody, human IgG1, kappa, L234A L235A, V domains shown) VH: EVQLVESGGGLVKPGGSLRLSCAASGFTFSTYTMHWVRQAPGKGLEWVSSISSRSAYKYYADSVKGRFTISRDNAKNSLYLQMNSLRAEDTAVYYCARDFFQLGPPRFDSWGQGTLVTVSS VL: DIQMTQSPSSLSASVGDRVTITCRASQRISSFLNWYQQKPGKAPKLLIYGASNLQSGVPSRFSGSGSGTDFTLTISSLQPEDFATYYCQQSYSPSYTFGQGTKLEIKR : provide Kd
Response line: 0.14

Prompt line: Fill in Kd for record 4D3 (antibody, human IgG1, kappa, L234A L235A, V domains shown) VH: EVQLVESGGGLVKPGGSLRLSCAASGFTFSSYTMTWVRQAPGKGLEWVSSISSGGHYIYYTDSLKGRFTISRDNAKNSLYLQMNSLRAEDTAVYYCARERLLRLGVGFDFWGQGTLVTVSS VL: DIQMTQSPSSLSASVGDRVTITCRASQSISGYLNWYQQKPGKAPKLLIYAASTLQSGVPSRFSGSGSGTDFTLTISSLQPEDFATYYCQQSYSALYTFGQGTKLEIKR
Response line: 0.17

Prompt line: Identify the reported Kd for the following entry. 3D10a (antibody, human IgG1, kappa, L234A L235A, V domains shown) VH: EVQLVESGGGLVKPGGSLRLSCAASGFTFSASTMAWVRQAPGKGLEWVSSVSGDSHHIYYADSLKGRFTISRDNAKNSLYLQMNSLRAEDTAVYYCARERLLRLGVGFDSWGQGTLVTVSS VL: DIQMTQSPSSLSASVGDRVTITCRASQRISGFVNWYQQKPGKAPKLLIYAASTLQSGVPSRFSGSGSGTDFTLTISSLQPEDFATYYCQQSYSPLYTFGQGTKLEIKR
Response line: 0.1

Prompt line: Provide one value: measured Kd of 3F6c (antibody, human IgG1, kappa, L234A L235A, V domains shown) VH: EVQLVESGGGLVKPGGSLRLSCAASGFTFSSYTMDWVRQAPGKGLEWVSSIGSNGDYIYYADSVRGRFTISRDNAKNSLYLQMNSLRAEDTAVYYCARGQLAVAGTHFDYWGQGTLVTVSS VL: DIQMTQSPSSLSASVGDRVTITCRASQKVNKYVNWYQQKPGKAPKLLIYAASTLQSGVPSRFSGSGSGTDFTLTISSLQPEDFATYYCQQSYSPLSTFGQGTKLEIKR
Response line: 0.03
